List of pEC50 values.
# ASSAY TARGET: Palmitoleoyl-protein carboxylesterase NOTUM (Mus musculus)
# Sequence (Q8R116 whole entry): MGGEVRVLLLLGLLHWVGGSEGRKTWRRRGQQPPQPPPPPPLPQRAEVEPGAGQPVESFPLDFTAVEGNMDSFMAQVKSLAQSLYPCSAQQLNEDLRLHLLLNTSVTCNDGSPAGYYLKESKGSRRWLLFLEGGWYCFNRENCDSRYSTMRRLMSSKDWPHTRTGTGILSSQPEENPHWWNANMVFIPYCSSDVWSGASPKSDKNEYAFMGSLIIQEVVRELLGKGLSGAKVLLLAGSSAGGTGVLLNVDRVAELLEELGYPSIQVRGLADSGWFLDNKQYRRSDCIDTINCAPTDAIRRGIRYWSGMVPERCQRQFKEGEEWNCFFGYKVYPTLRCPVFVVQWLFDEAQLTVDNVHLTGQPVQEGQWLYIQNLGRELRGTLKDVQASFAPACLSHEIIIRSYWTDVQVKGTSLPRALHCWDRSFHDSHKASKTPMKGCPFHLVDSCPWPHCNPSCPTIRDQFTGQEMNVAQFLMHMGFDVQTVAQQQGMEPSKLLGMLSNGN
# METHOD NOTES: Inhibition of mouse notum pectinacetylesterase expressed in 293F cells after 30 mins by TCF/LEF cell sensor assay
pEC50: −log10 of the molar value.

SMILES REPRESENTATION	pEC50
Cc1sc2c(SCC(=O)O)ncnc2c1Cl	5.26
Cc1c(Cl)sc2c(SCC(=O)O)ncnc12	5.84
Cc1c(Cl)sc2ncnc(SCC(=O)O)c12	5.59
Cc1sc2ncnc(SCC(=O)O)c2c1Cl	6.39

----------
# ASSAY TARGET: Palmitoleoyl-protein carboxylesterase NOTUM (Mus musculus)
# METHOD NOTES: Inhibition of mouse notum pectinacetylesterase expressed in 293F cells after 30 mins by TCF/LEF cell sensor assay
# Assay type: cell-based
pEC50: −log10 of the molar value.
List of pEC50 values.

SMILES REPRESENTATION	ASSAY TARGET	pEC50
CC(C)c1sc2ncnc(SCC(=O)O)c2c1Cl	Palmitoleoyl-protein carboxylesterase NOTUM (Mus musculus)	6.08
CCc1sc2ncnc(SCC(=O)O)c2c1Cl	Palmitoleoyl-protein carboxylesterase NOTUM (Mus musculus)	5.84
Cc1c(Br)sc2c(SCC(=O)O)ncnc12	Palmitoleoyl-protein carboxylesterase NOTUM (Mus musculus)	5.87
Cc1c(Br)sc2ncnc(SCC(=O)O)c12	Palmitoleoyl-protein carboxylesterase NOTUM (Mus musculus)	6.31
Cc1sc2c(SCC(=O)O)ncnc2c1C1CC1	Palmitoleoyl-protein carboxylesterase NOTUM (Mus musculus)	6.39
Cc1sc2ncnc(SCC(=O)O)c2c1C	Palmitoleoyl-protein carboxylesterase NOTUM (Mus musculus)	5.99
Cc1sc2ncnc(SCC(=O)O)c2c1Br	Palmitoleoyl-protein carboxylesterase NOTUM (Mus musculus)	6.43
Cc1sc2c(SCC(=O)O)ncnc2c1C	Palmitoleoyl-protein carboxylesterase NOTUM (Mus musculus)	5.35
O=C(O)CSc1ncnc2sc(C3CC3)c(Cl)c12	Palmitoleoyl-protein carboxylesterase NOTUM (Mus musculus)	6.00
CCCc1sc2ncnc(SCC(=O)O)c2c1Cl	Palmitoleoyl-protein carboxylesterase NOTUM (Mus musculus)	6.47
CCc1sc2ncnc(SCC(=O)O)c2c1C	Palmitoleoyl-protein carboxylesterase NOTUM (Mus musculus)	5.58
O=C(O)CSc1ncnc2c(C3CC3)c(C(F)(F)F)sc12	Palmitoleoyl-protein carboxylesterase NOTUM (Mus musculus)	7.37
CCc1c(C)sc2ncnc(SCC(=O)O)c12	Palmitoleoyl-protein carboxylesterase NOTUM (Mus musculus)	4.18
O=C(O)CSc1ncnc2c(C3CC3)c(Cl)sc12	Palmitoleoyl-protein carboxylesterase NOTUM (Mus musculus)	7.26

----------
# METHOD NOTES: AUC in mouse at 10 mg/kg, po
# Assay type: ADME, organism-based
# CONDITIONS USED: in vivo

SMILES REPRESENTATION	AUC (µM·h)
Cc1sc2ncnc(SCC(=O)O)c2c1Cl	515

----------
# METHOD NOTES: Clearance in mouse at 10 mg/kg, po
# Format: ADME, organism-based
# CONDITIONS USED: in vivo

SMILES REPRESENTATION	CL/F [mL/min/kg]
Cc1sc2ncnc(SCC(=O)O)c2c1Cl	1.22

----------
# METHOD NOTES: Inhibition of human/mouse notum pectinacetylesterase using OPTS as substrate by fluorimetric assay
List of log10 of IC50 values.
MEASUREMENT LABEL: log10 of IC50 (log10 of the value in nM)

SMILES REPRESENTATION	MEASUREMENT LABEL	NUMERIC READOUT
O=C(O)CSc1ncnc2sccc12	log10 of IC50	3.45
Cc1sc2ncnc(SCC(=O)O)c2c1C	log10 of IC50	0.30
O=C(O)CSc1ncnc2scnc12	log10 of IC50	4.18
CNC(=O)CSc1ncnc2sc(C)c(C)c12	log10 of IC50	1.43
Cc1csc2ncnc(SCC(=O)O)c12	log10 of IC50	1.96
Cc1csc2c(SCC(=O)O)ncnc12	log10 of IC50	2.29
O=C(O)CSc1ncnc2sc3c(c12)CCCC3	log10 of IC50	2.79
Cc1sc2ncnc(SCC(=O)NC#N)c2c1C	log10 of IC50	0.30
Cc1sc2ncnc(SCC(=O)c3ccc(CNC(=O)C(C)C)o3)c2c1C	log10 of IC50	0.78
Cc1sc2ncnc(SCC(=O)NO)c2c1C	log10 of IC50	0.30
Cc1sc2ncnc(SCC(=O)c3c[nH]c(CNS(=O)(=O)C4CC4)c3)c2c1C	log10 of IC50	0.30
Cc1sc2ncnc(SCC(=O)NS(C)(=O)=O)c2c1C	log10 of IC50	1.04
Cc1sc2ncnc(SCC(N)=O)c2c1C	log10 of IC50	0.30
Cc1cc2c(SCC(=O)O)ncnc2s1	log10 of IC50	2.18
O=C(O)CSc1ncnc2ccccc12	log10 of IC50	3.08
O=C(O)CSc1ncnc2[nH]ccc12	log10 of IC50	4.18
Cc1sc2ncnc(SCC(=O)c3ccc(CNC(=O)C4CC4)o3)c2c1C	log10 of IC50	0.70
COC(=O)CSc1ncnc2sc(C)c(C)c12	log10 of IC50	0.30
Cc1sc2ncnc(SCC(=O)c3c[nH]c(C(=O)N4CCCC4)c3)c2c1C	log10 of IC50	1.00
O=C(O)CSc1ncnc2[nH]ncc12	log10 of IC50	4.18

----------
# METHOD NOTES: Oral bioavailability in mouse at 10 mg/kg
# Type: ADME, organism-based
# CONDITIONS USED: in vivo

SMILES REPRESENTATION	bioavailability [%]
Cc1sc2ncnc(SCC(=O)O)c2c1Cl	95

----------
# ASSAY TARGET: Palmitoleoyl-protein carboxylesterase NOTUM (Homo sapiens)
# Sequence (Q6P988 whole entry): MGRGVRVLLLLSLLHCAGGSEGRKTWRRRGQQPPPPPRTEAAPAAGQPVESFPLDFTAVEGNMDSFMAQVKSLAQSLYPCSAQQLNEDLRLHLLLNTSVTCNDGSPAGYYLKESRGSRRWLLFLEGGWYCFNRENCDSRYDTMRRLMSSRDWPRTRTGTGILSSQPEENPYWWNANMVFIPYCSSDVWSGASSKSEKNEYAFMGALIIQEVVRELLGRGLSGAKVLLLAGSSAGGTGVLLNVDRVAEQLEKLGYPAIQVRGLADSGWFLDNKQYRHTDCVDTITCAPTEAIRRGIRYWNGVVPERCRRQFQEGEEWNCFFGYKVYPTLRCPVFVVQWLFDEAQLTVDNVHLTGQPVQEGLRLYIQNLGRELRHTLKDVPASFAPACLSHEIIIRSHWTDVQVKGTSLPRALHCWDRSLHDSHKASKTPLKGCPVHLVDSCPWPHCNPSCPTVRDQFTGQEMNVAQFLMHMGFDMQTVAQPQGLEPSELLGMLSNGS
# METHOD NOTES: Inhibition of human notum pectinacetylesterase expressed in 293F cells after 30 mins by TCF/LEF cell sensor assay
pEC50: −log10 of the molar value.
List of pEC50 values.
MEASUREMENT LABEL: pEC50

SMILES REPRESENTATION	MEASUREMENT LABEL	NUMERIC READOUT
Cc1sc2c(SCC(=O)O)ncnc2c1C1CC1	pEC50	6.94
CNC(=O)CSc1ncnc2sc(C)c(C)c12	pEC50	6.10
CCc1sc2ncnc(SCC(=O)O)c2c1Cl	pEC50	6.41
Cc1sc2ncnc(SCC(=O)O)c2c1Cl	pEC50	6.97
Cc1c(Cl)sc2ncnc(SCC(=O)O)c12	pEC50	6.05
O=C(O)CSc1ncnc2sc(C3CC3)c(Cl)c12	pEC50	6.60
O=C(O)CSc1ncnc2c(C3CC3)c(C(F)(F)F)sc12	pEC50	7.92
Cc1sc2ncnc(SCC(=O)c3c[nH]c(CNS(=O)(=O)C4CC4)c3)c2c1C	pEC50	6.77
Cc1sc2ncnc(SCC(=O)NC#N)c2c1C	pEC50	6.40
CC(C)c1sc2ncnc(SCC(=O)O)c2c1Cl	pEC50	6.32
Cc1sc2ncnc(SCC(=O)c3ccc(CNC(=O)C(C)C)o3)c2c1C	pEC50	6.68
Cc1sc2ncnc(SCC(=O)O)c2c1Br	pEC50	6.68
Cc1c(Cl)sc2c(SCC(=O)O)ncnc12	pEC50	6.36
CCCc1sc2ncnc(SCC(=O)O)c2c1Cl	pEC50	7.06
COC(=O)CSc1ncnc2sc(C)c(C)c12	pEC50	6.35
Cc1sc2c(SCC(=O)O)ncnc2c1C	pEC50	6.06
Cc1sc2c(SCC(=O)O)ncnc2c1Cl	pEC50	5.71
Cc1sc2ncnc(SCC(=O)c3ccc(CNC(=O)C4CC4)o3)c2c1C	pEC50	6.60
Cc1sc2ncnc(SCC(N)=O)c2c1C	pEC50	6.07
CCc1c(C)sc2ncnc(SCC(=O)O)c12	pEC50	4.66
Cc1sc2ncnc(SCC(=O)NS(C)(=O)=O)c2c1C	pEC50	5.84
Cc1c(Br)sc2c(SCC(=O)O)ncnc12	pEC50	6.38
Cc1c(Br)sc2ncnc(SCC(=O)O)c12	pEC50	6.84
Cc1sc2ncnc(SCC(=O)c3c[nH]c(C(=O)N4CCCC4)c3)c2c1C	pEC50	6.55
Cc1sc2ncnc(SCC(=O)NO)c2c1C	pEC50	6.25
CCc1sc2ncnc(SCC(=O)O)c2c1C	pEC50	6.08

----------
# METHOD NOTES: Cmax in mouse at 10 mg/kg, po
# Type: ADME, organism-based
# Set-up: dose 10 mg/kg, route oral
# CONDITIONS USED: in vivo
MEASUREMENT LABEL: Cmax (µM)

SMILES REPRESENTATION	MEASUREMENT LABEL	NUMERIC READOUT
Cc1sc2ncnc(SCC(=O)O)c2c1Cl	Cmax	157
